procedureSummary: CAD kinetic aqueous solubility
Assay type: physicochemical
assaySetup: pH 7.4, pH7.4 phosphate buffered saline
Protocol: CAD Aqueous Solubility 11 5µl of 10mM DMSO stock solution is diluted to 100 µ l with pH7.4 phosphate buffered saline, equilibrated for 1 hour at room temperature and filtered through Millipore MultiscreenHTS-PCF
Given measured solubility at 1 h, output class 1 if it is greater than or equal to 50 µM and class 0 if not.

{"columns": ["compound", "class"],
 "data": [
  ["O=C(Cc1ccc(F)c(F)c1)N1CCC(Nc2ncc3c(N4CCOCC4)n[nH]c3n2)CC1", "class 1"],
  ["O=C(Cc1ccc(F)cc1F)N1CCC(Nc2ncc3c(C4CCOCC4)n[nH]c3n2)CC1", "class 1"],
  ["CCOC(=O)N1CCC(Nc2ncc3c(-c4ccccc4OC)n[nH]c3n2)CC1", "class 0"],
  ["CC(C)Cc1n[nH]c2nc(NC3CCN(C(=O)C(C)c4ccccc4)CC3)ncc12 (stereo not shown)", "class 1"],
  ["CC(C)Cc1n[nH]c2nc(NC3CCN(C(=O)Cc4ccc(F)cc4F)CC3)ncc12", "class 0"],
  ["CC(C)(C)Cc1n[nH]c2nc(NC3CCN(C(=O)Cc4ccc(F)cc4F)CC3)ncc12", "class 0"],
  ["CC(C)Oc1n[nH]c2nc(NC3CCN(C(=O)Cc4ccc(F)cc4F)CC3)ncc12", "class 0"],
  ["COc1ccccc1-c1n[nH]c2nc(NC3CCN(C(=O)Cc4ccc(F)c(F)c4)CC3)ncc12", "class 1"],
  ["CC(C)Cc1n[nH]c2nc(NC3CCN(C(=O)Cc4ccccc4)CC3)ncc12", "class 1"],
  ["O=C(Cc1ccc(F)cc1F)N1CCC(Nc2ncc3c(N4CCOCC4)n[nH]c3n2)CC1", "class 0"]
]}

----------
testedOn: p38β MAPK (Homo sapiens, UniProt Q15759)
Sequence (Q15759 whole entry): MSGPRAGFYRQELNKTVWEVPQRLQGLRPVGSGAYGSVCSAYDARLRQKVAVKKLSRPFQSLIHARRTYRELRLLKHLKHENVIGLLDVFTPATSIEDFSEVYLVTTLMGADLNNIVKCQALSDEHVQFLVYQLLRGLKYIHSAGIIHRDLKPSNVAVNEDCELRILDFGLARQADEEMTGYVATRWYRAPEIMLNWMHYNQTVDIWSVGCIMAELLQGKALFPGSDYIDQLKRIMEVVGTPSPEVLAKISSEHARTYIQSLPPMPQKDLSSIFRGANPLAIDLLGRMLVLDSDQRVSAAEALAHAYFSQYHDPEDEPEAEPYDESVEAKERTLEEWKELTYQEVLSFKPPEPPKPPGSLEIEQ

{"columns": ["compound", "IC50"],
 "data": [
  ["O=C(Cc1ccc(F)c(F)c1)N1CCC(Nc2ncc3c(N4CCOCC4)n[nH]c3n2)CC1 [Compound 48]", "550 nM"]
]}

----------
procedureSummary: Rat dose-escalation PK study
Type: in vivo
assaySetup: blood, 10 mg kg^–1

{"columns": ["smilesRepr", "Cmax"],
 "data": [
  ["O=C(Cc1ccc(F)c(F)c1)N1CCC(Nc2ncc3c(N4CCOCC4)n[nH]c3n2)CC1", "229 ng/mL"]
]}

----------
// reported solubility at 1 h per item
procedureSummary: CAD kinetic aqueous solubility
Assay type: physicochemical
assaySetup: pH 7.4, pH7.4 phosphate buffered saline
measuredQuantity: solubility at 1 h (µM)

{"columns": ["molecule", "limitQualifier", "recordedNumber"],
 "data": [
  ["CC(C)Cc1n[nH]c2nc(NC3CCN(S(=O)(=O)Cc4ccccc4)CC3)ncc12 [Compound 5]", "=", 10],
  ["O=C(Cc1ccc(F)c(F)c1)N1CCC(Nc2ncc3c(C4CCOCC4)n[nH]c3n2)CC1 [Compound 47]", "≥", 429],
  ["CC(C)Cc1n[nH]c2nc(NC3CCN(C(=O)Cc4ccc(Cl)cc4Cl)CC3)ncc12 [Compound 9]", "=", 26],
  ["CC(C)Cc1n[nH]c2nc(N[C@H]3CC[C@H](NC(=O)Cc4ccccc4)CC3)ncc12 [Compound 3]", "=", 51],
  ["COc1ccccc1-c1n[nH]c2nc(NC3CCN(S(=O)(=O)CCC(F)(F)F)CC3)ncc12 [Compound 37]", "<", 1],
  ["O=C(Cc1ccc(F)cc1F)N1CCC(Nc2ncc3c(-c4ccccn4)n[nH]c3n2)CC1 [Compound 18]", "=", 23],
  ["COc1ccccc1-c1n[nH]c2nc(NC3CCN(C(=O)Cc4ccc(F)cc4F)CC3)ncc12 [Compound 20]", "<", 1],
  ["COc1ncccc1-c1n[nH]c2nc(NC3CCN(C(=O)Cc4ccc(F)cc4F)CC3)ncc12 [Compound 21]", "=", 25]
]}

----------
procedureSummary: Rat dose-escalation PK study
Assay type: in vivo
assaySetup: blood, 300 mg kg^–1
measuredQuantity: Tmax (h)

{"columns": ["smilesRepr", "recordedNumber"],
 "data": [
  ["O=C(Cc1ccc(F)c(F)c1)N1CCC(Nc2ncc3c(N4CCOCC4)n[nH]c3n2)CC1", 6.67]
]}

----------
procedureSummary: FaSSIF solubility
Type: physicochemical
assaySetup: fasted state simulated intestinal fluid (FaSSIF)
// reported solubility per item

{"columns": ["smilesRepr", "limitQualifier", "solubility, µg/mL"],
 "data": [
  ["COc1ccccc1-c1n[nH]c2nc(NC3CCN(C(=O)CC4CC4)CC3)ncc12", "<", 1],
  ["COc1ccccc1-c1n[nH]c2nc(NC3CCN(C(=O)Cc4ccc(F)cc4F)CC3)ncc12", "<", 1],
  ["O=C(Cc1ccc(F)c(F)c1)N1CCC(Nc2ncc3c(N4CCOCC4)n[nH]c3n2)CC1", "=", 97],
  ["Clc1ccc(N2CCC(Nc3ncc4c(N5CCOCC5)n[nH]c4n3)CC2)nn1", "=", 88]
]}

----------
procedureSummary: Rat dose-escalation PK study
Format: in vivo
assaySetup: blood, 100 mg kg^–1, read-out: AUC (0-Tlast)

{"columns": ["compound", "units", "AUC(0-t)"],
 "data": [
  ["O=C(Cc1ccc(F)c(F)c1)N1CCC(Nc2ncc3c(N4CCOCC4)n[nH]c3n2)CC1 [Compound 48]", "µg·h/mL", 50.6]
]}

----------
// reported solubility per item
procedureSummary: Aqueous solubility, values marked with ref 12
Type: physicochemical
assaySetup: aqueous solution; values marked [12] in the table (method of ref 12, not CAD)

{"columns": ["smilesRepr", "solubility"],
 "data": [
  ["Clc1ccc(N2CCC(Nc3ncc4c(C5CCOCC5)n[nH]c4n3)CC2)nn1", "63 µM"],
  ["Clc1ccc(N2CCC(Nc3ncc4c(N5CCOCC5)n[nH]c4n3)CC2)nn1", "121 µM"]
]}

----------
procedureSummary: Stability in mouse liver microsomes (intrinsic clearance)
Type: in vitro ADME
assaySetup: mouse liver microsomal intrinsic clearance, 0.5 μM
// reported Cli mouse per item

{"columns": ["molecule", "units", "Cli mouse"],
 "data": [
  ["CC(C)(C)Cc1n[nH]c2nc(NC3CCN(C(=O)Cc4ccc(F)cc4F)CC3)ncc12 [Compound 11]", "ml min^–1 g^–1", 22.0],
  ["O=C(Cc1ccc(F)c(F)c1)N1CCC(Nc2ncc3c(C4CCOCC4)n[nH]c3n2)CC1 [Compound 47]", "ml min^–1 g^–1", 3.1],
  ["O=C(Cc1ccc(F)c(F)c1)N1CCC(Nc2ncc3c(N4CCOCC4)n[nH]c3n2)CC1 [Compound 48]", "ml min^–1 g^–1", 1.6],
  ["CC(C)Cc1n[nH]c2nc(NC3CCN(C(=O)c4ccccc4)CC3)ncc12 [Compound 7]", "ml min^–1 g^–1", 7],
  ["COc1ccccc1-c1n[nH]c2nc(NC3CCN(S(=O)(=O)CCC(F)(F)F)CC3)ncc12 [Compound 37]", "ml min^–1 g^–1", 14],
  ["CCOC(=O)N1CCC(Nc2ncc3c(-c4ccccc4OC)n[nH]c3n2)CC1 [Compound 38]", "ml min^–1 g^–1", 14],
  ["COc1ncccc1-c1n[nH]c2nc(NC3CCN(C(=O)Cc4ccc(F)cc4F)CC3)ncc12 [Compound 21]", "ml min^–1 g^–1", 15],
  ["COc1ccccc1-c1n[nH]c2nc(NC3CCN(C(=O)CC4CC4)CC3)ncc12 [Compound 42]", "ml min^–1 g^–1", 1.6]
]}

----------
procedureSummary: Rat dose-escalation PK study
Type: in vivo
assaySetup: blood, 10 mg kg^–1

{"columns": ["smilesRepr", "Tmax [min]"],
 "data": [
  ["O=C(Cc1ccc(F)c(F)c1)N1CCC(Nc2ncc3c(N4CCOCC4)n[nH]c3n2)CC1", 40.2]
]}

----------
procedureSummary: Rat dose-escalation PK study
Format: in vivo
assaySetup: in vivo, 300 mg kg^–1, read-out: AUC (0-Tlast)

{"columns": ["smilesRepr", "units", "AUC(0-t)"],
 "data": [
  ["O=C(Cc1ccc(F)c(F)c1)N1CCC(Nc2ncc3c(N4CCOCC4)n[nH]c3n2)CC1", "ng·h/mL", 84600]
]}

----------
procedureSummary: Rat dose-escalation PK study
Type: in vivo
assaySetup: blood, 10 mg kg^–1, read-out: AUC (0-Tlast)

{"columns": ["smilesRepr", "AUC(0-t) [ng·h/mL]"],
 "data": [
  ["O=C(Cc1ccc(F)c(F)c1)N1CCC(Nc2ncc3c(N4CCOCC4)n[nH]c3n2)CC1", 488]
]}

----------
// reported log10(Cli mouse) per item
procedureSummary: Stability in mouse liver microsomes (intrinsic clearance)
Format: in vitro ADME
assaySetup: mouse liver microsomal intrinsic clearance, 0.5 μM
measuredQuantity: log10(Cli mouse) (log10 of the value in ml min^–1 g^–1)

{"columns": ["molecule", "measuredQuantity", "recordedNumber"],
 "data": [
  ["Clc1ccc(N2CCC(Nc3ncc4c(N5CCOCC5)n[nH]c4n3)CC2)nn1 [Compound 50]", "log10(Cli mouse)", -0.22],
  ["Cn1nccc1-c1n[nH]c2nc(NC3CCN(C(=O)Cc4ccc(F)cc4F)CC3)ncc12 [Compound 19]", "log10(Cli mouse)", 0.52],
  ["COc1ccccc1-c1n[nH]c2nc(NC3CCN(c4ccc(Cl)nn4)CC3)ncc12 [Compound 41]", "log10(Cli mouse)", 0.53],
  ["CC(C)Cc1n[nH]c2nc(NC3CCN(C(=O)Cc4ccccc4)CC3)ncc12 [Compound 4]", "log10(Cli mouse)", 1.26],
  ["CC(C)Cc1n[nH]c2nc(NC3CCN(C(=O)Cc4ccc(Cl)cc4Cl)CC3)ncc12 [Compound 9]", "log10(Cli mouse)", 1.48],
  ["COc1ccccc1-c1n[nH]c2nc(NC3CCN(C(=O)N4CCOCC4)CC3)ncc12 [Compound 40]", "log10(Cli mouse)", 0.30],
  ["O=C(Cc1ccc(F)cc1F)N1CCC(Nc2ncc3c(N4CCOCC4)n[nH]c3n2)CC1 [Compound 15]", "log10(Cli mouse)", 0.30],
  ["O=C(Cc1ccc(F)cc1F)N1CCC(Nc2ncc3c(C4CCOCC4)n[nH]c3n2)CC1 [Compound 13]", "log10(Cli mouse)", -0.30]
]}
